- METHOD_DESCRIPTION: Distribution coefficient, logD of the compound at pH 7.4
- Format: physicochemical
- CONDITION: octanol/water
Category key, based on recorded logD: L = under 2, M = from 2 up to 3, H = 3 and over

### Prompt Which of the defined bands does the recorded logD of Cc1ccc(C(=O)NC2CC2)cc1-n1ccnc(N[C@@H](c2ccccc2)[C@@H](C)CN2CCNCC2)c1=O sit within?
### Response L

### Prompt Which of the defined bands does the recorded logD of Cc1ccc(C(=O)NC2CC2)cc1-n1ccnc(NCc2ccccc2OCCN2CCCC2)c1=O sit within?
### Response L

### Prompt Which of the defined bands does the recorded logD of Cc1ccc(C(=O)NC2CC2)cc1-n1ccnc(N[C@@H](c2ccccc2)[C@@H](C)CN2CCN(C)CC2)c1=O sit within?
### Response M

### Prompt Which of the defined bands does the recorded logD of Cc1ccc(C(=O)NC2CC2)cc1-n1ccnc(NC(C)(C)c2ccccc2)c1=O sit within?
### Response H

### Prompt Which of the defined bands does the recorded logD of Cc1ccc(C(=O)NC2CC2)cc1-n1ccnc(N[C@H](C)c2ccccc2)c1=O sit within?
### Response M

### Prompt Which of the defined bands does the recorded logD of CC[C@@H](Nc1nccn(-c2cc(C(=O)NC3CC3)ccc2C)c1=O)c1ccccc1 sit within?
### Response H

### Prompt Which of the defined bands does the recorded logD of Cc1ccc(C(=O)NC2CC2)cc1-n1ccnc(NCC2CCCCC2)c1=O sit within?
### Response H

### Prompt Which of the defined bands does the recorded logD of Cc1ccc(C(=O)NC2CC2)cc1-n1ccnc(NC2CC2)c1=O sit within?
### Response L

### Prompt Which of the defined bands does the recorded logD of Cc1ccc(C(=O)NC2CC2)cc1-n1ccnc(N2CCCC2c2ccccc2)c1=O (racemic) sit within?
### Response H

###

Assign Vd to each entry below.
- METHOD_DESCRIPTION: Volume of distribution at steady state in iv dosed rat
- Assay type: ADME, organism-based
- CONDITION: in vivo, read-out: Vdss
Response body: numeric value in L/kg, unit text excluded.

### Prompt Requested read-out: Vd. Entry: CNCCOc1ccccc1C(C)(C)Nc1nccn(-c2cc(C(=O)NC3CC3)ccc2C)c1=O
### Response 31.6

### Prompt Requested read-out: Vd. Entry: Cc1ccc(C(=O)NC2CC2)cc1-n1ccnc(N[C@@H](c2ccccc2)[C@@H](C)CN2CCCCC2)c1=O
### Response 5.5

### Prompt Requested read-out: Vd. Entry: Cc1ccc(C(=O)NC2CC2)cc1-n1ccnc(NC(C)(C)c2ccccc2OCCN2CCCC2)c1=O
### Response 16.6

###

- METHOD_DESCRIPTION: Intrinsic clearance in rat hepatocytes assessed per 10^6 cells
- Type: ADME, cell-based, Hepatocyte
- CONDITION: read-out: CLH
Assign hepatocyte CLint to each entry below.
Response body: numeric value in µL/min/1e6 cells, unit text excluded.

### Prompt Requested read-out: hepatocyte CLint. Entry: CNCCOc1ccccc1C(C)(C)Nc1nccn(-c2cc(C(=O)NC3CC3)ccc2C)c1=O
### Response 20

### Prompt Requested read-out: hepatocyte CLint. Entry: Cc1ccc(C(=O)NC2CC2)cc1-n1ccnc(N[C@@H](c2ccccc2)[C@@H](C)CN2CCCCC2)c1=O
### Response 61

### Prompt Requested read-out: hepatocyte CLint. Entry: Cc1ccc(C(=O)NC2CC2)cc1-n1ccnc(NCC2CCCCC2)c1=O
### Response 7.6

### Prompt Requested read-out: hepatocyte CLint. Entry: Cc1ccc(C(=O)NC2CC2)cc1-n1ccnc(N[C@@H]2CCCc3ccccc32)c1=O
### Response 140

### Prompt Requested read-out: hepatocyte CLint. Entry: Cc1ccc(C(=O)NC2CC2)cc1-n1ccnc(NCCc2ccccc2)c1=O
### Response 130

### Prompt Requested read-out: hepatocyte CLint. Entry: Cc1ccc(C(=O)NC2CC2)cc1-n1ccnc(NC(C)(C)c2ccccc2)c1=O
### Response 19

### Prompt Requested read-out: hepatocyte CLint. Entry: Cc1ccc(C(=O)NC2CC2)cc1-n1ccnc(N2CCCC2c2ccccc2)c1=O (racemic)
### Response 120

### Prompt Requested read-out: hepatocyte CLint. Entry: Cc1ccc(C(=O)NC2CC2)cc1-n1ccnc(N[C@@H](c2ccccc2)[C@@H](C)CN2CCN[C@@H](C)C2)c1=O
### Response 14

### Prompt Requested read-out: hepatocyte CLint. Entry: Cc1ccc(C(=O)NC2CC2)cc1-n1ccnc(Nc2ccccc2)c1=O
### Response 3.3

### Prompt Requested read-out: hepatocyte CLint. Entry: Cc1ccc(C(=O)NC2CC2)cc1-n1ccnc(N[C@H](C)c2ccccc2)c1=O
### Response 17

### Prompt Requested read-out: hepatocyte CLint. Entry: COc1ccc(CNc2nccn(-c3cc(C(=O)NC4CC4)ccc3C)c2=O)cc1
### Response 3.4

### Prompt Requested read-out: hepatocyte CLint. Entry: Cc1ccc(C(=O)NC2CC2)cc1-n1ccnc(N[C@@H](c2ccccc2)[C@@H](C)CN2CCNCC2)c1=O
### Response 15

### Prompt Requested read-out: hepatocyte CLint. Entry: Cc1ccc(C(=O)NC2CC2)cc1-n1ccnc(N[C@@H](c2ccccc2)[C@@H](C)CN2CCN[C@H](C)C2)c1=O
### Response 8.5

### Prompt Requested read-out: hepatocyte CLint. Entry: Cc1ccc(C(=O)NC2CC2)cc1-n1ccnc(N[C@@H](c2ccccc2)[C@@H](C)CO)c1=O
### Response 19

### Prompt Requested read-out: hepatocyte CLint. Entry: CC[C@@H](Nc1nccn(-c2cc(C(=O)NC3CC3)ccc2C)c1=O)c1ccccc1OCCN1CCCC1
### Response 35

### Prompt Requested read-out: hepatocyte CLint. Entry: COc1cccc(CNc2nccn(-c3cc(C(=O)NC4CC4)ccc3C)c2=O)c1
### Response 7.4

### Prompt Requested read-out: hepatocyte CLint. Entry: CNc1nccn(-c2cc(C(=O)NC3CC3)ccc2C)c1=O
### Response 1.1

### Prompt Requested read-out: hepatocyte CLint. Entry: Cc1ccc(C(=O)NC2CC2)cc1-n1ccnc(N(C)Cc2ccccc2)c1=O
### Response 59

FYI, the data here is from ChEMBL document CHEMBL4725297.
